src = ChEMBL document CHEMBL3085624

# TEST METHOD NOTES: Plasma concentration in Copenhagen rat at 2 nmol/h, sc measured after 6 days by radioimmunoassay
# Type: ADME, organism-based
Non-standard residues stand in square brackets, D forms with d. Residues, ends and D or L forms follow the SMILES beside them. Arg(Me) = CNC(=N)NCCC[C@H](N)C(=O)O; d4Pal = N[C@H](Cc1ccncc1)C(=O)O; azaGly = NNC(=O)O
ASSAY READOUT: concentration at 144 h (nM)
Hi! Could you send only the number? It should be in nM, unit omitted.

Give recorded concentration at 144 h. CNC(=N)NCCC[C@H](NC(=O)[C@H](CC(C)C)NC(=O)NNC(=O)[C@H](Cc1ccccc1)NC(=O)[C@H](CO)NC(=O)[C@H](CC(N)=O)NC(=O)[C@@H](Cc1ccncc1)NC(=O)[C@H](N)Cc1ccc(O)cc1)C(=O)N[C@@H](Cc1ccccc1)C(N)=O [KISS1-305] (H-[dY][d4Pal]NSF[azaGly]L[Arg(Me)]F-NH2)
0.95
